As shown below, each of these molecules has a reported log10(EC50) value.
# tested_on: P2Y purinoceptor 2 (Homo sapiens, UniProt P41231)
# Sequence (P41231 whole entry): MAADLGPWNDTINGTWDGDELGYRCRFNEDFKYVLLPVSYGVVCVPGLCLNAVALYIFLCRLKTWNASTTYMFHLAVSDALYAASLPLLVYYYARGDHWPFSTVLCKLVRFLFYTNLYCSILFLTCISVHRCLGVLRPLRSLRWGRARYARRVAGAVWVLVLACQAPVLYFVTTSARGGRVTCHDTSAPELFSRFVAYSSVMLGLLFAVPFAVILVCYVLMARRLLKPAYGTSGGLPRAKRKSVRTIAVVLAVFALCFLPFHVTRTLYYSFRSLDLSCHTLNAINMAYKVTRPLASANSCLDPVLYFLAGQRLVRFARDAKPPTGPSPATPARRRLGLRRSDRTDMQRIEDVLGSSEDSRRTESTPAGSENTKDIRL
# assay_comment: Agonist activity at human P2Y2 receptor expressed in human 1321N1 cells assessed as [3H]inositol phosphate accumulation by scintillation proximity assay
Please keep in mind that the values are log10 of EC50 expressed in µM.

For orientation, consider the following solved cases.
1. C[C@@]1(O)[C@H](O)[C@@H](COP(=O)(O)OP(=O)(O)OP(=O)(O)O)O[C@H]1n1ccc(=O)[nH]c1=O
0.16
2. O=c1[nH]c(=S)ccn1[C@@H]1O[C@H](COP(=O)(O)OP(=O)(O)OP(=O)(O)OP(=O)(O)O)[C@@H](O)[C@H]1O
-1.15
3. O=c1ccn([C@@H]2O[C@H](COP(=O)(O)OP(=O)(O)C(F)(F)P(=O)(O)O)[C@@H](O)[C@H]2O)c(=S)[nH]1
0.21
4. O=c1ccn([C@@H]2O[C@H](COP(=O)(O)OP(=O)(O)OP(=O)(O)OC[C@H]3O[C@@H](n4ccc(=O)[nH]c4=O)[C@H](O)[C@@H]3O)[C@@H](O)[C@H]2O)c(=O)[nH]1
0.12
5. O=c1ccn([C@@H]2O[C@H](COP(=O)(O)OP(=O)(O)OP(=O)(O)OP(=O)(O)OC[C@H]3OC(O)C[C@@H](O)[C@@H]3O)[C@@H](O)[C@H]2O)c(=O)[nH]1 (stereo partly specified)
0.55

Now consider the entry below.
Enquiry: Look at this molecule and give its reported log10(EC50). O=c1ccn([C@@H]2O[C@H](COP(=O)(O)OP(=O)(O)C(F)(F)P(=O)(O)OP(=O)(O)OC[C@H]3O[C@@H](n4ccc(=O)[nH]c4=O)[C@H](O)[C@@H]3O)[C@@H](O)[C@H]2O)c(=O)[nH]1
Return: 0.36

Ref: ChEMBL document CHEMBL1150771
